# TARGET_UNDER_TEST: Dipeptidyl peptidase 4 (Homo sapiens)
# Sequence (P27487 whole entry): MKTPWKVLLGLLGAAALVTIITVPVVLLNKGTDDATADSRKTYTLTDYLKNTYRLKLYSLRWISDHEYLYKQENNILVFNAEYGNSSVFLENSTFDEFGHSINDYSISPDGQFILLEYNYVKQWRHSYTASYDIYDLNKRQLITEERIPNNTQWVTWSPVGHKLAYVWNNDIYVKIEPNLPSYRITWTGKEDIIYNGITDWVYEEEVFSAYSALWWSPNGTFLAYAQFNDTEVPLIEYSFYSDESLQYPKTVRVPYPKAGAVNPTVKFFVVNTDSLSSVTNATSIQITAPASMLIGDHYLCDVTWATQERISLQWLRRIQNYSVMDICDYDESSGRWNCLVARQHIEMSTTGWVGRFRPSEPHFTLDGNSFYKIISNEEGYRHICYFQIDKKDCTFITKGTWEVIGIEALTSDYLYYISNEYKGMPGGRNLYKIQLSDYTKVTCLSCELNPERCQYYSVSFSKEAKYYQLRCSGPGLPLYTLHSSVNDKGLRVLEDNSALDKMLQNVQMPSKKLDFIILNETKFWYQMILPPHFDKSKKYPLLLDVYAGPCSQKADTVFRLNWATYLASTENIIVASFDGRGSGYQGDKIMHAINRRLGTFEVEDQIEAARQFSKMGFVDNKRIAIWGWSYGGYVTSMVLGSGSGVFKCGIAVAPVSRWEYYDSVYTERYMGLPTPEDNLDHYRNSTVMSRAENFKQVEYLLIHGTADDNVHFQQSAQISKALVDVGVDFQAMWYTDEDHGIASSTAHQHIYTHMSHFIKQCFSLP
pIC50: −log10 of the molar value.
MEASURED_PARAMETER: pIC50

Please review the entries below; each comes with its answer.
1. CN(C)C(=O)Nc1ccc(S(=O)(=O)N[C@H]2CC[C@H]([C@H](N)C(=O)N3CCSC3)CC2)cc1 ... 8.12
2. N[C@H](C(=O)N1CCSC1)[C@H]1CC[C@H](NC(=O)Nc2ccc(F)c(F)c2)CC1 ... 7.46

(1) N#Cc1cccc(S(=O)(=O)N[C@H]2CC[C@H]([C@H](N)C(=O)N3CCSC3)CC2)c1
(2) N[C@H](C(=O)N1CCSC1)[C@H]1CC[C@H](NC(=O)Nc2ccc(OC(F)(F)F)cc2)CC1
Data request: Which of the two items, 1 and 2 , has the greater recorded pIC50? Lab note: record the label of whichever item you select.
Data returned: 1
(1: 7.62, 2: 7.26)

###

# ASSAY_PROTOCOL: Half life in rats
# Type: ADME, organism-based
# CONDITION_DESCRIPTION: rat, in vivo
MEASURED_PARAMETER: half-life (h)

Please review the entries below; each comes with its answer.
1) N[C@H](C(=O)N1CCSC1)[C@H]1CC[C@H](NC(=O)c2ccc(F)c(F)c2)CC1 ... 2
2) N[C@H](C(=O)N1CCCC1)[C@H]1CC[C@H](NS(=O)(=O)c2ccc(F)cc2F)CC1 ... 1.8

(a) N[C@H](C(=O)N1CCCC1)[C@H]1CC[C@H](NC(=O)c2cccc3ccccc23)CC1
(b) N[C@H](C(=O)N1CCSC1)[C@H]1CC[C@H](NC(=O)c2cccc3ccccc23)CC1
Data request: Of a versus b , which is the one with smaller reported half-life? Lab note: record the label of whichever item you select.
Data returned: b
(b: 1.2 h, a: 2.3 h)

###

# ASSAY_PROTOCOL: Plasma clearance in rats
# Format: ADME, organism-based
# CONDITION_DESCRIPTION: rat, read-out: Clp
MEASURED_PARAMETER: clearance (mL/min/kg)

1) N[C@H](C(=O)N1CCSC1)[C@H]1CC[C@H](NS(=O)(=O)c2ccc(OC(F)(F)F)cc2)CC1 ... 21
2) N[C@H](C(=O)N1CCSC1)[C@H]1CC[C@H](NC(=O)c2cccc3ccccc23)CC1 ... 22
3) N[C@H](C(=O)N1CCCC1)[C@H]1CC[C@H](NS(=O)(=O)c2ccc(F)cc2F)CC1 ... 53

Ref: ChEMBL document CHEMBL1146708
